Values were extracted from the supplement of paper PMC10307832.

tested on: HCC-44; experiment: relative viability (nuclei count vs DMSO), 5 days (fraction); higher = more cells survive; settings: first compound 0.0002 µM
As shown below, each of these compounds has a reported relative viability value.

Worked examples follow.
{"compound": "CC(=O)O[C@@]12CO[C@@H]1C[C@H](O)[C@@]1(C)C(=O)[C@H](O)C3=C(C)[C@@H](OC(=O)[C@H](O)[C@@H](NC(=O)OC(C)(C)C)c4ccccc4)C[C@@](O)([C@@H](OC(=O)c4ccccc4)[C@H]21)C3(C)C [Docetaxel] + C[C@@H](Oc1cc(-c2cnn(C3CCNCC3)c2)cnc1N)c1c(Cl)ccc(F)c1Cl [Crizotinib] (partner 1 µM)", "relative viability": 0.805}
{"compound": "CC(=O)O[C@@]12CO[C@@H]1C[C@H](O)[C@@]1(C)C(=O)[C@H](O)C3=C(C)[C@@H](OC(=O)[C@H](O)[C@@H](NC(=O)OC(C)(C)C)c4ccccc4)C[C@@](O)([C@@H](OC(=O)c4ccccc4)[C@H]21)C3(C)C [Docetaxel] + NC(=O)Nc1cc(-c2cccc(F)c2)sc1C(=O)N[C@H]1CCCNC1 [AZD7762] (partner 0.2 µM)", "relative viability": 1.06}
{"compound": "CC(=O)O[C@@]12CO[C@@H]1C[C@H](O)[C@@]1(C)C(=O)[C@H](O)C3=C(C)[C@@H](OC(=O)[C@H](O)[C@@H](NC(=O)OC(C)(C)C)c4ccccc4)C[C@@](O)([C@@H](OC(=O)c4ccccc4)[C@H]21)C3(C)C [Docetaxel] + CS(=O)(=O)CCNCc1ccc(-c2ccc3ncnc(Nc4ccc(OCc5cccc(F)c5)c(Cl)c4)c3c2)o1 [Lapatinib] (partner 2 µM)", "relative viability": 0.936}
{"compound": "CC(=O)O[C@@]12CO[C@@H]1C[C@H](O)[C@@]1(C)C(=O)[C@H](O)C3=C(C)[C@@H](OC(=O)[C@H](O)[C@@H](NC(=O)OC(C)(C)C)c4ccccc4)C[C@@](O)([C@@H](OC(=O)c4ccccc4)[C@H]21)C3(C)C [Docetaxel] + N=C(N)NC(=N)NCCc1ccccc1 [Phenformin] (partner 250 µM)", "relative viability": 0.185}
{"compound": "CC(=O)O[C@@]12CO[C@@H]1C[C@H](O)[C@@]1(C)C(=O)[C@H](O)C3=C(C)[C@@H](OC(=O)[C@H](O)[C@@H](NC(=O)OC(C)(C)C)c4ccccc4)C[C@@](O)([C@@H](OC(=O)c4ccccc4)[C@H]21)C3(C)C [Docetaxel] + O=C(CCCCCCC(=O)Nc1ccccc1)NO [Vorinostat] (partner 1 µM)", "relative viability": 0.994}

// below: relative viability requested for another compound
Note to self: relative viability recorded for CC(=O)O[C@@]12CO[C@@H]1C[C@H](O)[C@@]1(C)C(=O)[C@H](O)C3=C(C)[C@@H](OC(=O)[C@H](O)[C@@H](NC(=O)OC(C)(C)C)c4ccccc4)C[C@@](O)([C@@H](OC(=O)c4ccccc4)[C@H]21)C3(C)C [Docetaxel] + O=C(c1cc(Cc2n[nH]c(=O)c3ccccc23)ccc1F)N1CCN(C(=O)C2CC2)CC1 [Olaparib] (partner 8 µM) was 0.978
